Experiment: Metabolic stability in human liver microsomes
Format: in vitro ADME
Conditions: pH 7.4, NADPH, 37° C.
measured_quantity: half-life at 0.25 μM (h)

{"compound": "Cl.[2H]C([2H])([2H])N[C@@H](CC)Cc1ccc2c(c1)OC([2H])([2H])O2", "observed_measurement": 0.91}
{"compound": "Cl.[2H]C1([2H])Oc2ccc(CC(CC)NC)cc2O1 (racemic)", "observed_measurement": 1.34}
{"compound": "Cl.[2H]C([2H])([2H])N[C@H](CC)Cc1ccc2c(c1)OC([2H])([2H])O2", "observed_measurement": 0.405}
{"compound": "Cl.[2H]C([2H])([2H])NC(CC)Cc1ccc2c(c1)OCO2 (racemic)", "observed_measurement": 1.87}
